Test system: Methicillin resistant Staphylococcus pseudintermedius, (C22963)
Type: cell-based
Settings: 18 h
Non-standard residues stand in square brackets, D forms with d. Residues, ends and D or L forms follow the SMILES beside them. N(1-naphthylmethyl)Gly = O=C(O)CNCc1cccc2ccccc12; d1Nal = N[C@H](Cc1cccc2ccccc12)C(=O)O; N(4-MeBn)Gly = Cc1ccc(CNCC(=O)O)cc1; Gly(N-CH2CH2OH) = O=C(O)CNCCO; dNle = CCCC[C@@H](N)C(=O)O; NBuGly = CCCCNCC(=O)O; Nlys = NCCCCNCC(=O)O; Sar = CNCC(=O)O
Listing: MIC MRSP of selected compounds
Supply the numeric figure in µg/mL, leaving out any unit text.

• CCCCN(CC(N)=O)C(=O)CN(CCCCN)C(=O)CN(Cc1cccc2ccccc12)C(=O)CN(Cc1cccc2ccccc12)C(=O)CN(Cc1ccc(C)cc1)C(=O)CN(Cc1cccc2ccccc12)C(=O)CN(CCCCN)C(=O)CNCCCCN [compound 11] (H-[Nlys][Nlys][N(1-naphthylmethyl)Gly][N(4-MeBn)Gly][N(1-naphthylmethyl)Gly][N(1-naphthylmethyl)Gly][Nlys][NBuGly]-NH2; N-terminus assumed) = 8
• CCCCN(CC(N)=O)C(=O)CN(CCCCN)C(=O)CN(Cc1cccc2ccccc12)C(=O)CN(CCO)C(=O)CN(Cc1ccc(C)cc1)C(=O)CN(Cc1cccc2ccccc12)C(=O)CN(CCCCN)C(=O)CNCCCCN [compound 12] (H-[Nlys][Nlys][N(1-naphthylmethyl)Gly][N(4-MeBn)Gly][Gly(N-CH2CH2OH)][N(1-naphthylmethyl)Gly][Nlys][NBuGly]-NH2; N-terminus assumed) = 8
• CCCCN(CC(N)=O)C(=O)CN(CCCCN)C(=O)CN(Cc1cccc2ccccc12)C(=O)CN(CCCCN)C(=O)CN(Cc1ccc(C)cc1)C(=O)CN(Cc1cccc2ccccc12)C(=O)CN(CCCCN)C(=O)CN [compound 1] (H-G[Nlys][N(1-naphthylmethyl)Gly][N(4-MeBn)Gly][Nlys][N(1-naphthylmethyl)Gly][Nlys][NBuGly]-NH2; N-terminus assumed) = 4
• CCCCN(CC(N)=O)C(=O)CN(CCCCN)C(=O)CN(Cc1cccc2ccccc12)C(=O)CN(CCCCN)C(=O)CN(Cc1ccc(C)cc1)C(=O)CN(Cc1cccc2ccccc12)C(=O)CN(CCCCN)C(=O)CNCCCCN [D2] (H-[Nlys][Nlys][N(1-naphthylmethyl)Gly][N(4-MeBn)Gly][Nlys][N(1-naphthylmethyl)Gly][Nlys][NBuGly]-NH2) = 4
• CCCC[C@@H](NC(=O)[C@@H](CCCCN)NC(=O)[C@@H](Cc1cccc2ccccc12)NC(=O)[C@@H](CCCCN)NC(=O)CN(Cc1ccc(C)cc1)C(=O)CN(Cc1cccc2ccccc12)C(=O)CN(CCCCN)C(=O)CNCCCCN)C(N)=O [compound 13] (H-[Nlys][Nlys][N(1-naphthylmethyl)Gly][N(4-MeBn)Gly][dK][d1Nal][dK][dNle]-NH2; N-terminus assumed) = 4

*Q* What value of measured MIC MRSP is listed for CCCCN(CC(N)=O)C(=O)CN(CCCCN)C(=O)CN(Cc1cccc2ccccc12)C(=O)CN(Cc1ccc(C)cc1)C(=O)CN(Cc1ccc(C)cc1)C(=O)CN(Cc1cccc2ccccc12)C(=O)CN(CCCCN)C(=O)CNCCCCN [compound 10] (H-[Nlys][Nlys][N(1-naphthylmethyl)Gly][N(4-MeBn)Gly][N(4-MeBn)Gly][N(1-naphthylmethyl)Gly][Nlys][NBuGly]-NH2; N-terminus assumed) ?
*A* 8

*Q* What value of measured MIC MRSP is listed for CCCCN(CC(N)=O)C(=O)CN(CCCCN)C(=O)CN(Cc1cccc2ccccc12)C(=O)CN(C)C(=O)CN(Cc1ccc(C)cc1)C(=O)CN(Cc1cccc2ccccc12)C(=O)CN(CCCCN)C(=O)CNCCCCN [compound 9] (H-[Nlys][Nlys][N(1-naphthylmethyl)Gly][N(4-MeBn)Gly][Sar][N(1-naphthylmethyl)Gly][Nlys][NBuGly]-NH2; N-terminus assumed) ?
*A* 4
